Tested on: NCL RBD1,2 (UniProt P19338 307-466)
Sequence (P19338 307-466): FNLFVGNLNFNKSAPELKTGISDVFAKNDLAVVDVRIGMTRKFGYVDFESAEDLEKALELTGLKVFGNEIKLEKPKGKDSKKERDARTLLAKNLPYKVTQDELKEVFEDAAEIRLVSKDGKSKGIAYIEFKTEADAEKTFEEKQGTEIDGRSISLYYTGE
Experiment: fluorescence titration; Hill n 0.24; K100: 100 mM KCl, 10 mM lithium cacodylate pH 7.2; 100 nM Cy5-oligonucleotide pre-annealed, 5 min equilibration per protein addition; temperature not stated
Conditions: label: 5'-Cy5; G-quadruplex

Binder	Units symbol	Kd
TGGTGGTGGTGGTTTGGTGGTGGTGGT (structured_DNA) [Cy5-AT14T-T1]	nM	3.39
